Where these numbers come from: ChEMBL document CHEMBL5390198

Test system: NCI-H522
experiment_summary: Antiproliferative activity against human NCI-H522 cells assessed as inhibition of cell growth at 10 uM measured after 24 to 72 hrs by SRB method relative to control
Format: functional
run_parameters: time 24-72 hrs
property_name: inhibition at 10 µM (%)
Number in %, nothing else.

Answered cases to consult:
COc1cc2c(c(OC)c1OC)CCC(c1cccc(NC(=O)c3ccc(C#N)cc3)c1)O2 (stereo not given); 42.8
COc1cc2c(c(OC)c1OC)CCC(c1cccc(NC(=O)c3ccccc3)c1)O2 (stereo not given); 24.3
COc1ccccc1NC(=O)c1cccc(C2CCc3c(cc(OC)c(OC)c3OC)O2)c1 (stereo not given); 27.7
COc1cccc(NC(=O)c2cccc(C3CCc4c(cc(OC)c(OC)c4OC)O3)c2)c1 (stereo not given); 46.9

Now consider a different compound.
Asked: Give its inhibition at 10 µM value. Item: COc1cc2c(c(OC)c1OC)CCC(c1cccc(NC(=O)c3cccc(Br)c3)c1)O2 (stereo not given)
Given back: 19
